B1: Pistol ribozyme (parent)
chain: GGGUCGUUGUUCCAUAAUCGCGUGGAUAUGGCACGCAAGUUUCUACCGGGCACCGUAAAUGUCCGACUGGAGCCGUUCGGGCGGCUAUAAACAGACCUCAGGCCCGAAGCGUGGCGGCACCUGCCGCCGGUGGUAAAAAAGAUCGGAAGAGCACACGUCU

# Variants of: B1
# Method Notes: aptazyme ON/OFF ratio, guanine; higher = stronger switching; co-transcriptional cleavage with and without guanine
Property Measured: aptazyme ON/OFF ratio
# respond with the number and nothing more

Consider the following illustrative entries.
[
  {
    "Mutation Descriptor": "U7G G9A U10A U11A C12A C13U",
    "aptazyme ON/OFF ratio": 1.11
  },
  {
    "Mutation Descriptor": "U7G U8A G9C U11G C12G",
    "aptazyme ON/OFF ratio": 1.04
  },
  {
    "Mutation Descriptor": "G9U C12G C13U",
    "aptazyme ON/OFF ratio": 1.43
  },
  {
    "Mutation Descriptor": "U7G U8C G9C U10G U11G C13G",
    "aptazyme ON/OFF ratio": 1.12
  },
  {
    "Mutation Descriptor": "U7C U8G G9U U10A U11C C13U",
    "aptazyme ON/OFF ratio": 1.02
  }
]

Request: Name the recorded aptazyme ON/OFF ratio for U7A G9C .
Result: 1.25

Request: Name the recorded aptazyme ON/OFF ratio for U7C U8G U10C U11G C12A C13U .
Result: 1.32

Request: Name the recorded aptazyme ON/OFF ratio for U7G U8G U10C C12G .
Result: 1.09

Request: Name the recorded aptazyme ON/OFF ratio for U8C G9U U10A U11A C12G .
Result: 1.32

Request: Name the recorded aptazyme ON/OFF ratio for U7C U8G U11A C13A .
Result: 1.07

Request: Name the recorded aptazyme ON/OFF ratio for U7A U8C G9A U10C U11A C12G C13G .
Result: 1.22

Values were extracted from the RNAGym collection of RNA variant scans (doi:10.1021/acssynbio.7b00057).
